Data origin: the NIST ThermoML archive (doi:10.1016/j.fluid.2017.03.021)

// molar heat capacity at constant pressure lookup, one value per entry
# EXPERIMENT NOTES: molar heat capacity at constant pressure
# MEASUREMENT SETUP: 326.15 K; 101.33 kPa; Liquid; DSC
RECORDED METRIC: molar heat capacity at constant pressure (J/K/mol)

CCCC[n+]1ccn(C2CCCC2)c1.O=S(=O)([N-]S(=O)(=O)C(F)(F)F)C(F)(F)F; 672.78
CCCCn1cc[n+](C(CC)CC)c1.O=S(=O)([N-]S(=O)(=O)C(F)(F)F)C(F)(F)F; 718.67
CCCCC[n+]1ccn(CCCC)c1.O=S(=O)([N-]S(=O)(=O)C(F)(F)F)C(F)(F)F; 707.83
CCCCn1cc[n+](CCC(C)C)c1.O=S(=O)([N-]S(=O)(=O)C(F)(F)F)C(F)(F)F; 707.07

---

# MEASUREMENT SETUP: 301.15 K; 101.33 kPa; Liquid; Vibrating tube method
RECORDED METRIC: mass density (kg/m3)

CCCCC[n+]1ccn(CCCC)c1.O=S(=O)([N-]S(=O)(=O)C(F)(F)F)C(F)(F)F; 1314.7
CCCCn1cc[n+](C(CC)CC)c1.O=S(=O)([N-]S(=O)(=O)C(F)(F)F)C(F)(F)F; 1316.8
CCCC[n+]1ccn(C2CCCC2)c1.O=S(=O)([N-]S(=O)(=O)C(F)(F)F)C(F)(F)F; 1372
CCCCn1cc[n+](CCC(C)C)c1.O=S(=O)([N-]S(=O)(=O)C(F)(F)F)C(F)(F)F; 1315.5

---

Quick list: speed of sound per entry.
# MEASUREMENT SETUP: 305.15 K; 101.33 kPa; Liquid; Sing-around technique in a fixed-path interferometer
RECORDED METRIC: speed of sound (m/s)

CCCCC[n+]1ccn(CCCC)c1.O=S(=O)([N-]S(=O)(=O)C(F)(F)F)C(F)(F)F; 1197.6
CCCCn1cc[n+](CCC(C)C)c1.O=S(=O)([N-]S(=O)(=O)C(F)(F)F)C(F)(F)F; 1201.2
CCCCn1cc[n+](C(CC)CC)c1.O=S(=O)([N-]S(=O)(=O)C(F)(F)F)C(F)(F)F; 1195.8
CCCC[n+]1ccn(C2CCCC2)c1.O=S(=O)([N-]S(=O)(=O)C(F)(F)F)C(F)(F)F; 1254.2

---

# EXPERIMENT NOTES: molar heat capacity at constant pressure
# MEASUREMENT SETUP: 343.15 K; 101.33 kPa; Liquid; DSC
RECORDED METRIC: molar heat capacity at constant pressure (J/K/mol)

CCCCC[n+]1ccn(CCCC)c1.O=S(=O)([N-]S(=O)(=O)C(F)(F)F)C(F)(F)F; 720.62
CCCCn1cc[n+](C(CC)CC)c1.O=S(=O)([N-]S(=O)(=O)C(F)(F)F)C(F)(F)F; 731.13
CCCC[n+]1ccn(C2CCCC2)c1.O=S(=O)([N-]S(=O)(=O)C(F)(F)F)C(F)(F)F; 686.27
CCCCn1cc[n+](CCC(C)C)c1.O=S(=O)([N-]S(=O)(=O)C(F)(F)F)C(F)(F)F; 720.2

---

molar heat capacity at constant pressure by entry:
# EXPERIMENT NOTES: molar heat capacity at constant pressure
# MEASUREMENT SETUP: 319.15 K; 101.33 kPa; Liquid; DSC
RECORDED METRIC: molar heat capacity at constant pressure (J/K/mol)

CCCCn1cc[n+](CCC(C)C)c1.O=S(=O)([N-]S(=O)(=O)C(F)(F)F)C(F)(F)F; 701.27
CCCCn1cc[n+](C(CC)CC)c1.O=S(=O)([N-]S(=O)(=O)C(F)(F)F)C(F)(F)F; 712.97
CCCCC[n+]1ccn(CCCC)c1.O=S(=O)([N-]S(=O)(=O)C(F)(F)F)C(F)(F)F; 702.37
CCCC[n+]1ccn(C2CCCC2)c1.O=S(=O)([N-]S(=O)(=O)C(F)(F)F)C(F)(F)F; 667.43

---

Recorded molar heat capacity at constant pressure, one value per entry.
# EXPERIMENT NOTES: molar heat capacity at constant pressure
# MEASUREMENT SETUP: 323.15 K; 101.33 kPa; Liquid; DSC
RECORDED METRIC: molar heat capacity at constant pressure (J/K/mol)

CCCCn1cc[n+](C(CC)CC)c1.O=S(=O)([N-]S(=O)(=O)C(F)(F)F)C(F)(F)F; 716.3
CCCCn1cc[n+](CCC(C)C)c1.O=S(=O)([N-]S(=O)(=O)C(F)(F)F)C(F)(F)F; 704.55
CCCCC[n+]1ccn(CCCC)c1.O=S(=O)([N-]S(=O)(=O)C(F)(F)F)C(F)(F)F; 705.5
CCCC[n+]1ccn(C2CCCC2)c1.O=S(=O)([N-]S(=O)(=O)C(F)(F)F)C(F)(F)F; 670.51

---

# EXPERIMENT NOTES: molar heat capacity at constant pressure
# MEASUREMENT SETUP: 318.15 K; 101.33 kPa; Liquid; DSC
Entries and their measured molar heat capacity at constant pressure follow.
RECORDED METRIC: molar heat capacity at constant pressure (J/K/mol)

CCCCC[n+]1ccn(CCCC)c1.O=S(=O)([N-]S(=O)(=O)C(F)(F)F)C(F)(F)F; 701.65
CCCCn1cc[n+](C(CC)CC)c1.O=S(=O)([N-]S(=O)(=O)C(F)(F)F)C(F)(F)F; 711.87
CCCC[n+]1ccn(C2CCCC2)c1.O=S(=O)([N-]S(=O)(=O)C(F)(F)F)C(F)(F)F; 666.77
CCCCn1cc[n+](CCC(C)C)c1.O=S(=O)([N-]S(=O)(=O)C(F)(F)F)C(F)(F)F; 700.56

---

# EXPERIMENT NOTES: molar heat capacity at constant pressure
# MEASUREMENT SETUP: 325.15 K; 101.33 kPa; Liquid; DSC
Numbers after ± are expanded uncertainties.
RECORDED METRIC: molar heat capacity at constant pressure

CCCCn1cc[n+](C(CC)CC)c1.O=S(=O)([N-]S(=O)(=O)C(F)(F)F)C(F)(F)F; 718.2 ± 28 J/K/mol
CCCCn1cc[n+](CCC(C)C)c1.O=S(=O)([N-]S(=O)(=O)C(F)(F)F)C(F)(F)F; 706.26 ± 27 J/K/mol
CCCCC[n+]1ccn(CCCC)c1.O=S(=O)([N-]S(=O)(=O)C(F)(F)F)C(F)(F)F; 707.07 ± 27 J/K/mol
CCCC[n+]1ccn(C2CCCC2)c1.O=S(=O)([N-]S(=O)(=O)C(F)(F)F)C(F)(F)F; 672.02 ± 26 J/K/mol

---

# MEASUREMENT SETUP: 331.15 K; 101.33 kPa; Liquid; Sing-around technique in a fixed-path interferometer
RECORDED METRIC: speed of sound (m/s)

CCCCn1cc[n+](C(CC)CC)c1.O=S(=O)([N-]S(=O)(=O)C(F)(F)F)C(F)(F)F; 1137.9
CCCCn1cc[n+](CCC(C)C)c1.O=S(=O)([N-]S(=O)(=O)C(F)(F)F)C(F)(F)F; 1143
CCCC[n+]1ccn(C2CCCC2)c1.O=S(=O)([N-]S(=O)(=O)C(F)(F)F)C(F)(F)F; 1193.9
CCCCC[n+]1ccn(CCCC)c1.O=S(=O)([N-]S(=O)(=O)C(F)(F)F)C(F)(F)F; 1140.1

---

# MEASUREMENT SETUP: 343.15 K; 101.33 kPa; Liquid; Vibrating tube method
Measured mass density values are reported for all entries that follow.
RECORDED METRIC: mass density (kg/m3)

CCCC[n+]1ccn(C2CCCC2)c1.O=S(=O)([N-]S(=O)(=O)C(F)(F)F)C(F)(F)F; 1334.3
CCCCn1cc[n+](C(CC)CC)c1.O=S(=O)([N-]S(=O)(=O)C(F)(F)F)C(F)(F)F; 1280.1
CCCCn1cc[n+](CCC(C)C)c1.O=S(=O)([N-]S(=O)(=O)C(F)(F)F)C(F)(F)F; 1278.7
CCCCCC[n+]1ccn(C)c1.O=S(=O)([N-]S(=O)(=O)C(F)(F)F)C(F)(F)F; 1331.6
CCCCC[n+]1ccn(CCCC)c1.O=S(=O)([N-]S(=O)(=O)C(F)(F)F)C(F)(F)F; 1277.8

---

# MEASUREMENT SETUP: 343.15 K; 101.33 kPa; Liquid; Sing-around technique in a fixed-path interferometer
Entries and their measured speed of sound follow.
RECORDED METRIC: speed of sound (m/s)

CCCCC[n+]1ccn(CCCC)c1.O=S(=O)([N-]S(=O)(=O)C(F)(F)F)C(F)(F)F; 1114.7
CCCCn1cc[n+](CCC(C)C)c1.O=S(=O)([N-]S(=O)(=O)C(F)(F)F)C(F)(F)F; 1117.3
CCCCn1cc[n+](C(CC)CC)c1.O=S(=O)([N-]S(=O)(=O)C(F)(F)F)C(F)(F)F; 1112.4
CCCC[n+]1ccn(C2CCCC2)c1.O=S(=O)([N-]S(=O)(=O)C(F)(F)F)C(F)(F)F; 1167.3
